testTarget: T1, recombinant human BCMA-his fusion protein (ACRO Biosystem, Cat. No. BCA-H522y) (human, UniProt Q02223 1-54)
T1 construct: extracellular domain; Bought protein; also called huBCMA-his; hu BCMA-his; not shown: His tag
T1 sequence (looked up): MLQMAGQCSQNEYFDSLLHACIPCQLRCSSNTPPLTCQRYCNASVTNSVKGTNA
experimentalDetails: competitive ELISA, coated huBCMA-his, competitor APRIL-biotin
measuredQuantity: IC50 (µg/mL)
Answer in µg/mL, number only, no unit symbol.

Example entries begin here.
- human-mouse chimeric antibody c-mAb1 (antibody, human IgG1, V domains shown, not shown: human IgG1 heavy chain constant region, GenBank No. AK303185.1; human kappa light chain constant region, GenBank No. MG815648.1) VH: EVQLQQSGPELVKPGTSVEMSCKASGYTFTDYNIHWVRQRHGESLEWLGYINPNNGVTNFNQKFKGKATLTVNKSSSTAYMELRSLTSDDSAVYYCSSGLFDGYPFPYWGQGTLVTVSA VL: DIVLTQSPASLVVSLGQRATISCRASKSVSTSGYNYIHWYQQKPGQPPKLLIFLASNLKSGVPARFSGGGSGTDFTLNIHPVEEDDAATYFCQHNRELPYTFGGGTKVEIK: 0.0114
- human-mouse chimeric antibody c-mAb2 (antibody, human IgG1, V domains shown, not shown: human IgG1 heavy chain constant region, GenBank No. AK303185.1; human kappa light chain constant region, GenBank No. MG815648.1) VH: QVQLQQSDAELVKPGTSVKISCKVSGYTFTDHTIHWMKQRPEQGLEWIGYIYPRNGNTKYNEKFKGKATLTADKSSSTAYMHLNSLTSEDSAVYFCARYDYDGYFDVWGTGTTVTVSS VL: DVVMTQTPLSLPVSLGDQASISCRSSQSHVHSDGHTYLHWYLQKPGQSPELLIYKVSNRFSGVPDRFSGSGSGTDFTLKISRVEAEDLGVYFCSQNTHFPWTFGGGTKLEIK: 0.0108

Now for a further binder.
Which IC50 is listed for soluble human APRIL (ACRO, Cat. No. APL-H5244) (ligand, UniProt O75888 115-250, looked up, also called APRIL ligand; APRIL-biotin) HSVLHLVPINATSKDDSDVTEVMWQPALRRGRGLQAQGYGVRIQDAGVYLLYSQVLFQDVTFTMGQVVSREGQGRQETLFRCIRSMPSHPDRAYNSCYSAGVFHLHQGDILSVIIPRARAKLNLSPHGTFLGFVKL ?
0.0247
